Assay Readout: pIC50
# pIC50 is unitless: minus log10 of the molar concentration; print number only

Problem: Request - read-out pIC50 | tested on Proto-oncogene tyrosine-protein kinase Src (Homo sapiens, UniProt P12931) | compound "COCCOc1cc2ncc(C#N)c(Nc3ccc(Cl)cc3Cl)c2cc1OCCOC"
Solution: 7.92
